B1: Twister Ribozyme (parent)
chain: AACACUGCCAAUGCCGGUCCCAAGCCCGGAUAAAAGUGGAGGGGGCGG

Variants of: B1
Experiment: self-cleavage, relative activity (ratio to wild type); higher = more cleavage; co-transcriptional
Parameter self-cleavage: see the listing below.

Consider the following illustrative entries.
G7C G16U
0.0598
G7U A40C
0.0967
G36C A40U
0.149
A10C G48U
1.01
G16A C20A
0.12
A22G G28A
0.128
G39C G44A
0.137
C27A G43A
0.148

Look at this variant and give its reported self-cleavage. C15U G43C
0.125

Look at this variant and give its reported self-cleavage. C26U G45U
0.145
